Biological target: T1, α‐FXIIa (Homo sapiens, UniProt P00748)
T1 construct: purchased Enzyme Research Laboratories (Swansea, UK)
T1 sequence (P00748 373-615 limits assumed): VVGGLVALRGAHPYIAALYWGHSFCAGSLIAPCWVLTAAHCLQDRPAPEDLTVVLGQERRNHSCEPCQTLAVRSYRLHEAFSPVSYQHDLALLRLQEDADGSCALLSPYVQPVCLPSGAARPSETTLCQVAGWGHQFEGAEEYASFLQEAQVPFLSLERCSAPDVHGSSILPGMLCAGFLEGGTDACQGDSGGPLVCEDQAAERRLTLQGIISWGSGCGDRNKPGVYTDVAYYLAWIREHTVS
T1 sequence (P00748 20-372 partner limits assumed): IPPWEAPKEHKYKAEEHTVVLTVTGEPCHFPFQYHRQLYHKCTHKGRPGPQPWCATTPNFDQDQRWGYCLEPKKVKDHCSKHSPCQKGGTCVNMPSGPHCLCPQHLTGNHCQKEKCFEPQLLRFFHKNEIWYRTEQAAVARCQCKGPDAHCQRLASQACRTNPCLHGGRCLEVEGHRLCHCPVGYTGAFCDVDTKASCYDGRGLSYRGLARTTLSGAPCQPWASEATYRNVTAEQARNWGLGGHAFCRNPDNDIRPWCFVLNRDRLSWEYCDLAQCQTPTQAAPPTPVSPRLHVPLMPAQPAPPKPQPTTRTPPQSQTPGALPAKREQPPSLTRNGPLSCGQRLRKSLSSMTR
Test: α‐FXIIa enzymatic assay (S‐2302 chromogenic substrate cleavage, pNA release)
Type: biochemical
Details: CTI variant proteins 10^−8 M to 10^−5 M, 200 μM S‐2302, 10 nM α‐FXIIa, 33 °C, initial rate of first 30 min, A405; SE of the fit, n = 3–5 independent experiments; SEM
Item-by-item account of pIC50 ± SE

- molecule: "G30W: rec‐CTI variant, replacement of Gly30 with a tryptophan (protein, assayed as His6-GST fusion (tag omitted); disulfides) SAGTSCVPGWAIPHNPLPSCRWYVTSRTCWIGPRLPWPELKRRCCRELADIPAYCRCTALSILMDGAIPPGPDAQLEGRLEDLPGCPREVQRGFAATLVTEAECNLATISGVAECPWILGGGTMPSK"
  pIC50 ± SE: 6.32
- molecule: "G32W: rec‐CTI variant, replacement of Gly32 with tryptophan (protein, assayed as His6-GST fusion (tag omitted); disulfides) SAGTSCVPGWAIPHNPLPSCRWYVTSRTCGIWPRLPWPELKRRCCRELADIPAYCRCTALSILMDGAIPPGPDAQLEGRLEDLPGCPREVQRGFAATLVTEAECNLATISGVAECPWILGGGTMPSK"
  pIC50 ± SE: 4.89
- molecule: "E39A: rec‐CTI variant, alanine substitution of Glu39 (protein, assayed as His6-GST fusion (tag omitted); disulfides) SAGTSCVPGWAIPHNPLPSCRWYVTSRTCGIGPRLPWPALKRRCCRELADIPAYCRCTALSILMDGAIPPGPDAQLEGRLEDLPGCPREVQRGFAATLVTEAECNLATISGVAECPWILGGGTMPSK"
  pIC50 ± SE: 6.85
- molecule: "R27A/E39A: rec‐CTI double substitution R27A/E39A (protein, assayed as His6-GST fusion (tag omitted); disulfides) SAGTSCVPGWAIPHNPLPSCRWYVTSATCGIGPRLPWPALKRRCCRELADIPAYCRCTALSILMDGAIPPGPDAQLEGRLEDLPGCPREVQRGFAATLVTEAECNLATISGVAECPWILGGGTMPSK"
  pIC50 ± SE: 6.58
- molecule: "R27A/R42A: rec‐CTI double substitution R27A/R42A (protein, assayed as His6-GST fusion (tag omitted); disulfides) SAGTSCVPGWAIPHNPLPSCRWYVTSATCGIGPRLPWPELKARCCRELADIPAYCRCTALSILMDGAIPPGPDAQLEGRLEDLPGCPREVQRGFAATLVTEAECNLATISGVAECPWILGGGTMPSK"
  pIC50 ± SE: 6.80
- molecule: "W22A: rec‐CTI variant, alanine substitution of Trp22 (protein, assayed as His6-GST fusion (tag omitted); disulfides) SAGTSCVPGWAIPHNPLPSCRAYVTSRTCGIGPRLPWPELKRRCCRELADIPAYCRCTALSILMDGAIPPGPDAQLEGRLEDLPGCPREVQRGFAATLVTEAECNLATISGVAECPWILGGGTMPSK"
  pIC50 ± SE: 4.72
- molecule: "R27A: rec‐CTI variant, alanine substitution of Arg27 (protein, assayed as His6-GST fusion (tag omitted); disulfides) SAGTSCVPGWAIPHNPLPSCRWYVTSATCGIGPRLPWPELKRRCCRELADIPAYCRCTALSILMDGAIPPGPDAQLEGRLEDLPGCPREVQRGFAATLVTEAECNLATISGVAECPWILGGGTMPSK"
  pIC50 ± SE: 6.78
